Can you tell me pEC50 for the items I'm about to list?
Molecular target: GlunN1/GluN2A glutamate receptors (Homo sapiens (Human), UniProt Q05586+Q12879)
Sequence (Q12879 23-1464, other chains not shown): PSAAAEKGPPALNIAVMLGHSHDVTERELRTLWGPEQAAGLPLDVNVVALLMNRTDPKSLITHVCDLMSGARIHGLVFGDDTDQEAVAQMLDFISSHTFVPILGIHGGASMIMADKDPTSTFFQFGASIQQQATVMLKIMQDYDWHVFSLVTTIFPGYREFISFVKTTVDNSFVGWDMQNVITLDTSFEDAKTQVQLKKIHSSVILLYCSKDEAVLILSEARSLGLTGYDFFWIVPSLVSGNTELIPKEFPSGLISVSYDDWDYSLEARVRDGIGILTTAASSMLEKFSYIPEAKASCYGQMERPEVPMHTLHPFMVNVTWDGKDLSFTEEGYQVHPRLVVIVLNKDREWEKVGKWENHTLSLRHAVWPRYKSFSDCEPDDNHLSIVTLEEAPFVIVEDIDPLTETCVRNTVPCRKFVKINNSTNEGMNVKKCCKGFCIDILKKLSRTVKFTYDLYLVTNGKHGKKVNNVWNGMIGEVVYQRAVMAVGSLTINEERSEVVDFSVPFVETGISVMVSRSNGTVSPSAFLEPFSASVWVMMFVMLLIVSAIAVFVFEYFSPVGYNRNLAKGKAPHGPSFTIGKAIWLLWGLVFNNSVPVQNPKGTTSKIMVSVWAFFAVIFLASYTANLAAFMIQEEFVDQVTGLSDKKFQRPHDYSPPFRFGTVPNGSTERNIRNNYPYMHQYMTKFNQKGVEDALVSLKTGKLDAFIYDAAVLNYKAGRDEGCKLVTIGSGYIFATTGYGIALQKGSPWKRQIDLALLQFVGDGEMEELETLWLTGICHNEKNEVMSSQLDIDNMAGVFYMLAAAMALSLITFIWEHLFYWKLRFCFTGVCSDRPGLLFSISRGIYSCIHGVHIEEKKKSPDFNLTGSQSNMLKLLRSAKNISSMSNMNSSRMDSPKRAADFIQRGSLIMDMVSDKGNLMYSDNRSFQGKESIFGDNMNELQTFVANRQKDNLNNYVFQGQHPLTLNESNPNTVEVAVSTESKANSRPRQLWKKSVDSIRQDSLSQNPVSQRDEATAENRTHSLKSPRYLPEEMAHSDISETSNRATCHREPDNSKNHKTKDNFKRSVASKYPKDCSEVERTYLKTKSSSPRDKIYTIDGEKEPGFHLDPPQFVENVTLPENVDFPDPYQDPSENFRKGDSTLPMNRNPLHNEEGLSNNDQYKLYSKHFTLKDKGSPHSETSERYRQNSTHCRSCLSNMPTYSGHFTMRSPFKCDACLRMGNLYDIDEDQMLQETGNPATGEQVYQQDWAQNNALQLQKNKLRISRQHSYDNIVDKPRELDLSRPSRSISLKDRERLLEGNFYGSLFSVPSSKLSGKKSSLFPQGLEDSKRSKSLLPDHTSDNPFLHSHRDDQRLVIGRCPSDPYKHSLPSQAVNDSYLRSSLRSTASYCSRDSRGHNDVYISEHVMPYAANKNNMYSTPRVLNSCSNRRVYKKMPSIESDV
Experiment: Whole-cell patch clamp of mammalian cells (Ionworks Barracuda), positive allosteric modulation, GluN1/GluN2A
Type: cell-based
pEC50: −log10 of the molar value.

Completed entries (count: 2):
CC[C@H]1CC[C@](O)(CC[C@@H](C)[C@H]2CC[C@H]3[C@@H]4CC[C@H]5C[C@](O)(C(F)(F)F)CC[C@]5(C)[C@H]4CC[C@]23C)CC1 < 5.00
CC(C)[C@H]1CC[C@](O)(CC[C@@H](C)[C@H]2CC[C@H]3[C@@H]4CC[C@H]5C[C@](O)(C(F)(F)F)CC[C@]5(C)[C@H]4CC[C@]23C)CC1 < 5.00

Ask: Give its pEC50 value. Item: CC[C@]1(O)CC[C@@]2(C)C(=CC[C@H]3[C@@H]4CC[C@H]([C@H](C)CC[C@H](O)c5cccnc5)[C@@]4(C)CC[C@@H]32)C1
Reply: < 5.00
